Property: pERK ICW EC50; scope: individual binders
experimentalSystem: human FGFR1c together with human beta-Klotho (KLB), stably expressed on CHO Flp-In cells (human), P11362
Sequence (P11362 22-822, chain 1 of 2): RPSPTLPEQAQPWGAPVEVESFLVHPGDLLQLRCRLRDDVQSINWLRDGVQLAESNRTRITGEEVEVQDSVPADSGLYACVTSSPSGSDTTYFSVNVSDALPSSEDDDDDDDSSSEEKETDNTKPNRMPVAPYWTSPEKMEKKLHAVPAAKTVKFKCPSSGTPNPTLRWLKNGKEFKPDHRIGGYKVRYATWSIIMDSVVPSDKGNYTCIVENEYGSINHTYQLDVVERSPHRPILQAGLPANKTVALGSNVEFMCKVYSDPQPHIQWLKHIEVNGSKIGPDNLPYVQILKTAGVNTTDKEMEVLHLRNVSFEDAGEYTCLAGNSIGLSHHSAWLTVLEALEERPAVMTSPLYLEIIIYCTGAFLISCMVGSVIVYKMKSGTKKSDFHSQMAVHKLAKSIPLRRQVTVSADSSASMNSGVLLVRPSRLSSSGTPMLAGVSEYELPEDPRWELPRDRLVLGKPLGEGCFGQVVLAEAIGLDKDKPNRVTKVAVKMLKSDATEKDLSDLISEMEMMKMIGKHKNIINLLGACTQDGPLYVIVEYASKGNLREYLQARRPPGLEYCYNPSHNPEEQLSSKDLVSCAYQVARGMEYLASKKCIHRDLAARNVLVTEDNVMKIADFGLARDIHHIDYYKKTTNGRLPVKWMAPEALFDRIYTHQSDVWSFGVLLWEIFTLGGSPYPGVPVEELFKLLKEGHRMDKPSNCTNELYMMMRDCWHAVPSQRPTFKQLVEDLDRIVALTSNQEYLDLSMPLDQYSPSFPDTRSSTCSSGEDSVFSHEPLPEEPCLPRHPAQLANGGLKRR
Sequence (Q86Z14 whole entry, chain 2 of 2, further chain): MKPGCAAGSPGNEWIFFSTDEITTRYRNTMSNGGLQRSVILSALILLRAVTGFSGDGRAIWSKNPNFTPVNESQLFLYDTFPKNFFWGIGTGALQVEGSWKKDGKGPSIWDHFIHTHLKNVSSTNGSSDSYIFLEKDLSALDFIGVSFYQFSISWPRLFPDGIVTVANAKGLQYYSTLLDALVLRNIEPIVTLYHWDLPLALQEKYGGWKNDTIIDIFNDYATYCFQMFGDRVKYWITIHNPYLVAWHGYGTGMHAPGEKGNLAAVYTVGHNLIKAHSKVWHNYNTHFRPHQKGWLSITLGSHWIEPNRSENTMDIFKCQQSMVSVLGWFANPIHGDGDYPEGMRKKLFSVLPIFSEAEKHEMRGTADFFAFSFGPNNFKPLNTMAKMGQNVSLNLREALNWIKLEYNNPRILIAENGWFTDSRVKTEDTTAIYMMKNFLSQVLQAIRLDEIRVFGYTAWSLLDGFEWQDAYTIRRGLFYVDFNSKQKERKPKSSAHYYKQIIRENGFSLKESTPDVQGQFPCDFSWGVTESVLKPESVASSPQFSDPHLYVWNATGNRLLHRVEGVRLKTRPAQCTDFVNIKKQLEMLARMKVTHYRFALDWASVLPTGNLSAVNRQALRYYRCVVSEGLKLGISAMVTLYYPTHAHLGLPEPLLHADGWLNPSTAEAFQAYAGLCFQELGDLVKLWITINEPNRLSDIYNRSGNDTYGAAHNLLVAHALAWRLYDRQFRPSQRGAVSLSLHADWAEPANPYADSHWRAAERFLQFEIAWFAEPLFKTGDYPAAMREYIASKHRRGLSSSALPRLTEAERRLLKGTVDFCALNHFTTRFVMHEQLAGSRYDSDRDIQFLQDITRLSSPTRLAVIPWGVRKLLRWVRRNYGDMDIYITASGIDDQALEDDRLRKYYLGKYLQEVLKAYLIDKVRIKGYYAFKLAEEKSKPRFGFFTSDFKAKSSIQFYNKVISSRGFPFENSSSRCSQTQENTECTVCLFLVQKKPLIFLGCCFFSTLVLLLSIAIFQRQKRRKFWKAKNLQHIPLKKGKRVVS
procedureDetails: cell-based or functional assay

>  <binder>
FGF21 S200M (SEQ ID NO: 153), Q9NSA1 29-209 (ligand) GHPIPDSSPLLQFGGQVRQRYLYTDDAQQTEAHLEIREDGTVGGAADQSPESLLQLKALKPGVIQILGVKTSRFLCQRPDGALYGSLHFDPEACSFRELLLEDGYNVYQSEAHGLPLHLPGNKSPHRDPAPRGPARFLPLPGLPPAPPEPPGILAPQPPDVGSSDPLSMVGPMQGRSPSYAS

>  <pERK ICW EC50>
0.17 nmol/L

$$$$
>  <binder>
FGF21 N149-D155 deleted and replaced by GSHSG (SEQ ID NO: 144), Q9NSA1 29-209 (ligand) GHPIPDSSPLLQFGGQVRQRYLYTDDAQQTEAHLEIREDGTVGGAADQSPESLLQLKALKPGVIQILGVKTSRFLCQRPDGALYGSLHFDPEACSFRELLLEDGYNVYQSEAHGLPLHLPGGSHSGPAPRGPARFLPLPGLPPAPPEPPGILAPQPPDVGSSDPLSMVGPSQGRSPSYAS

>  <pERK ICW EC50>
0.1 nmol/L

$$$$
>  <binder>
FGF21 D155Y (SEQ ID NO: 126), Q9NSA1 29-209 (ligand) GHPIPDSSPLLQFGGQVRQRYLYTDDAQQTEAHLEIREDGTVGGAADQSPESLLQLKALKPGVIQILGVKTSRFLCQRPDGALYGSLHFDPEACSFRELLLEDGYNVYQSEAHGLPLHLPGNKSPHRYPAPRGPARFLPLPGLPPAPPEPPGILAPQPPDVGSSDPLSMVGPSQGRSPSYAS

>  <pERK ICW EC50>
0.07 nmol/L

$$$$
